Reference source for all entries: paper PMC10427391

- Test System: CYP2E1 (Homo sapiens, UniProt P05181)
- Sequence (P05181 whole entry): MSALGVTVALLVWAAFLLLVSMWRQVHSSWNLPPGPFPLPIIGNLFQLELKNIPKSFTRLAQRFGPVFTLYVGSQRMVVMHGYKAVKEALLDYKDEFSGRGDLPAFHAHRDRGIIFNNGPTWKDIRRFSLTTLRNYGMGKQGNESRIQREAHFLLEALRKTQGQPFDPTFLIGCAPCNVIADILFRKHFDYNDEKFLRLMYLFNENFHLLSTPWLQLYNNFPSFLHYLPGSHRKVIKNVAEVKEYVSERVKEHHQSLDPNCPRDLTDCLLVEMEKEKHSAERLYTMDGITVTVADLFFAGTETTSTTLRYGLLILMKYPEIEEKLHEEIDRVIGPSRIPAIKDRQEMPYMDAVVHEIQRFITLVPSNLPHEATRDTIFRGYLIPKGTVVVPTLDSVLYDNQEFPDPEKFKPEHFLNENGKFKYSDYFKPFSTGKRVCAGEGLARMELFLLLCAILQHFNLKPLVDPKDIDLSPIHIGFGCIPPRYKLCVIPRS
- Method Description: In vitro inhibition of CYP2E1 (chlorzoxazone as substrate)
- Format: biochemical
- Design: A 100 µL microsomal incubation system; from tissue
Experimental Endpoint: IC50 (µM)
Give just the numeric value; µM need not be written.

According to the records, this molecule CC(=O)c1scnc1C [Compound Q11, 1‐(4‐methyl‐5‐thialzolyl) ethanone] displays IC50 of 1.64

----------
- Method Description: Bioavailability and pharmacokinetics of Q11 in rats
- Format: in vivo, SD rats
- Run Parameters: male, SD, rat, blood, 30 mg kg^−1, oral administration, read-out: mean T max
Experimental Endpoint: Tmax
Number plus unit, in that order.

Measured Tmax of CC(=O)c1scnc1C : 27 min

----------
- Test System: CYP2E1 (Homo sapiens, UniProt P05181)
- Method Description: In vitro inhibition of CYP2E1 (chlorzoxazone as substrate)
- Assay type: biochemical
- Design: A 100 µL microsomal incubation system; from tissue
- Run Parameters: chlorzoxazone 62.5 µM; read-out: IC50 of inhibition on CYP2E1
- Experimental: Chlorzoxazone with a concentration of 62.5 µM and inhibitors with different gradient concentrations were selected to plot the inhibition of chlorzoxazone and to calculate the IC50 of the inhibitor. A Lineweaver–Burk curve was used to determine the mechanism and calculate the K i of inhibitors of CYP2E1. […]
Experimental Endpoint: pIC50
Scale note: pIC50 = -log10(concentration in M).

For Cc1ncsc1CCCl [clomethiazole, reference compound] on CYP2E1 (Homo sapiens, UniProt P05181), measured pIC50 was 4.41

----------
- Method Description: Bioavailability and pharmacokinetics of Q11 in rats
- Format: in vivo, SD rats
- Run Parameters: male, SD, rat, blood, oral vs intravenous, 30 mg kg^−1
Experimental Endpoint: bioavailability (%)
Quick note: give the figure in %, leave out the unit.

bioavailability for CC(=O)c1scnc1C is 94.7

----------
- Test System: CYP2A6 (Homo sapiens, UniProt P11509)
- Sequence (P11509 1-494): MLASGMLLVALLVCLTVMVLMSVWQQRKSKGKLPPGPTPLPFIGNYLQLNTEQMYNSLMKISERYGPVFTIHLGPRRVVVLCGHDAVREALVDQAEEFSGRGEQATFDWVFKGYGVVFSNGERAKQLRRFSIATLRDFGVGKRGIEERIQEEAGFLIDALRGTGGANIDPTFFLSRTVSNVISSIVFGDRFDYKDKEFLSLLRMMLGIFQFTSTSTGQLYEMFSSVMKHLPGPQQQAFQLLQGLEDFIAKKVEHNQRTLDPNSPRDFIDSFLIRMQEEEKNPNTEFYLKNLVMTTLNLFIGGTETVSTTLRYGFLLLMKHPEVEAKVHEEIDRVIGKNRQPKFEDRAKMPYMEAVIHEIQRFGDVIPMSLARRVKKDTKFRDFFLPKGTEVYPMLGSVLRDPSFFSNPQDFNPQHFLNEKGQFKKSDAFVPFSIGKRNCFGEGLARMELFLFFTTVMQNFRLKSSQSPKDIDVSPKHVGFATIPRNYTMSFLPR
Experimental Endpoint: IC50 (µM)
Respond numerically; units are µM and should not be typed.

What the record says about CC(=O)c1scnc1C [Compound Q11, 1‐(4‐methyl‐5‐thialzolyl) ethanone] : IC50 is 76.2

----------
- Method Description: Bioavailability and pharmacokinetics of Q11 in rats
- Assay type: in vivo, SD rats
- Run Parameters: male, SD, rat, blood, 30 mg kg^−1, oral administration, read-out: mean t 1/2 (converted)
Experimental Endpoint: half-life (h)
Give just the number in h; leave the unit off.

half-life measured on CC(=O)c1scnc1C = 3.05
